Test system: Escherichia coli TOP10
Assay: shrunken log2 fold change of peptide-encoding DNA abundance (4.5 h post-induction vs induction); higher = less antimicrobial activity (less host growth inhibition)
Conditions: time post-induction: 4.5 h; library: site-saturation at positions 5, 18, 19, 20
Binary call on shrunken log2 fold change: rule met from -0.06 upward, rule not met beneath that.

SEQUENCE STRING: RRIRERPPRLPRPRPRPTFWPRP
ASSIGNED LABEL: rule met
//
SEQUENCE STRING: RRIRQRPPRLPRPRPRPLWVPRP
ASSIGNED LABEL: rule met
//
SEQUENCE STRING: RRIRFRPPRLPRPRPRPHRGPRP
ASSIGNED LABEL: rule met
//
SEQUENCE STRING: RRIRARPPRLPRPRPRPVEVPRP
ASSIGNED LABEL: rule met

Is it the case that RRIRKRPPRLPRPRPRPFIWPRP has shrunken log2 fold change reaching or exceeding -0.06? rule met

For RRIRLRPPRLPRPRPRPFCCPRP then? rule not met

For RRIRARPPRLPRPRPRPAPRPRP then? rule met

* * *

Tested on: Escherichia coli TOP10
Test: shrunken log2 fold change of peptide-encoding DNA abundance (4.5 h post-induction vs induction); higher = less antimicrobial activity (less host growth inhibition)
Details: time post-induction: 4.5 h; library: site-saturation at positions 5, 18, 19, 20
READOUT: shrunken log2 fold change
Answer with the value's number alone.

The cases that follow already have their shrunken log2 fold change on record.
SEQUENCE STRING: RRIRRRPPRLPRPRPRPGWVPRP
TESTED TARGET: Escherichia coli TOP10
VALUE MEASURED: 0.359
--
SEQUENCE STRING: RRIRTRPPRLPRPRPRPYWTPRP
TESTED TARGET: Escherichia coli TOP10
VALUE MEASURED: 0.0389
--
SEQUENCE STRING: RRIRIRPPRLPRPRPRPDGSPRP
TESTED TARGET: Escherichia coli TOP10
VALUE MEASURED: -0.189
--
SEQUENCE STRING: RRIRLRPPRLPRPRPRPMDAPRP
TESTED TARGET: Escherichia coli TOP10
VALUE MEASURED: 0.282
--
SEQUENCE STRING: RRIRWRPPRLPRPRPRPDTPPRP
TESTED TARGET: Escherichia coli TOP10
VALUE MEASURED: 0.126
--
SEQUENCE STRING: RRIRDRPPRLPRPRPRPYQLPRP
TESTED TARGET: Escherichia coli TOP10
VALUE MEASURED: -0.0742
--
SEQUENCE STRING: RRIRKRPPRLPRPRPRPIVNPRP
TESTED TARGET: Escherichia coli TOP10
VALUE MEASURED: 0.219
--
SEQUENCE STRING: RRIRYRPPRLPRPRPRPLYTPRP
TESTED TARGET: Escherichia coli TOP10
VALUE MEASURED: -0.795
--
SEQUENCE STRING: RRIRARPPRLPRPRPRPTRKPRP
TESTED TARGET: Escherichia coli TOP10
VALUE MEASURED: 0.574
--
SEQUENCE STRING: RRIRSRPPRLPRPRPRPNGWPRP
TESTED TARGET: Escherichia coli TOP10
VALUE MEASURED: 0.623

Looking for the measured shrunken log2 fold change of RRIRARPPRLPRPRPRPGCTPRP , can you help? 0.552

For RRIRDRPPRLPRPRPRPLTTPRP then? 0.135

For RRIRQRPPRLPRPRPRPQMTPRP then? -0.106

For RRIRNRPPRLPRPRPRPPTYPRP then? -0.217

For RRIRERPPRLPRPRPRPWCIPRP then? -1.84

For RRIRHRPPRLPRPRPRPPARPRP then? 1.66

For RRIRFRPPRLPRPRPRPMMTPRP then? 0.022

For RRIRWRPPRLPRPRPRPRDGPRP then? 1.12

For RRIRARPPRLPRPRPRPVMWPRP then? 0.555

For RRIRRRPPRLPRPRPRPVWQPRP then? 0.395

For RRIRVRPPRLPRPRPRPYIGPRP then? -0.661

For RRIRARPPRLPRPRPRPSTKPRP then? 0.076

For RRIRLRPPRLPRPRPRPVLYPRP then? -0.239

For RRIRLRPPRLPRPRPRPQTEPRP then? -0.0579

For RRIRRRPPRLPRPRPRPPERPRP then? 0.643

For RRIRKRPPRLPRPRPRPKTSPRP then? 0.489

For RRIRKRPPRLPRPRPRPWVEPRP then? 0.104

For RRIRWRPPRLPRPRPRPCGVPRP then? 0.0164

For RRIRFRPPRLPRPRPRPFDLPRP then? -0.352

* * *

Reported shrunken log2 fold change is given for each of the following sequences.
Tested on: Escherichia coli TOP10
Assay: shrunken log2 fold change of peptide-encoding DNA abundance (4.5 h post-induction vs induction); higher = less antimicrobial activity (less host growth inhibition)
Conditions: time post-induction: 4.5 h; library: site-saturation at positions 5, 18, 19, 20
Answer with the value's number alone.

Looking for the measured shrunken log2 fold change of RRIRGRPPRLPRPRPRPYHEPRP , can you help? 0.182

* * *

Tested on: Escherichia coli TOP10
Assay: shrunken log2 fold change of peptide-encoding DNA abundance (4.5 h post-induction vs induction); higher = less antimicrobial activity (less host growth inhibition)
Settings: time post-induction: 4.5 h; library: site-saturation at positions 5, 18, 19, 20
READOUT: shrunken log2 fold change
Answer with the value's number alone.

The cases that follow already have their shrunken log2 fold change on record.
SEQUENCE STRING: RRIRARPPRLPRPRPRPTINPRP
shrunken log2 fold change: -0.00779

SEQUENCE STRING: RRIRNRPPRLPRPRPRPQQKPRP
shrunken log2 fold change: 0.0694

SEQUENCE STRING: RRIRLRPPRLPRPRPRPSPLPRP
shrunken log2 fold change: -0.192

SEQUENCE STRING: RRIRLRPPRLPRPRPRPERAPRP
shrunken log2 fold change: 0.705

SEQUENCE STRING: RRIRSRPPRLPRPRPRPEMHPRP
shrunken log2 fold change: 0.0756

Looking for the measured shrunken log2 fold change of RRIRHRPPRLPRPRPRPENTPRP , can you help? 0.0466

For RRIRGRPPRLPRPRPRPISVPRP then? -0.0351

For RRIRMRPPRLPRPRPRPHFHPRP then? -0.376

For RRIRNRPPRLPRPRPRPFLQPRP then? -0.206

For RRIRFRPPRLPRPRPRPGGEPRP then? 0.271

For RRIRNRPPRLPRPRPRPPMDPRP then? -0.508

For RRIRPRPPRLPRPRPRPLLIPRP then? -0.758

For RRIRFRPPRLPRPRPRPRKQPRP then? 0.415

For RRIRWRPPRLPRPRPRPYHDPRP then? -0.868

For RRIRQRPPRLPRPRPRPSQLPRP then? 0.0128

For RRIRNRPPRLPRPRPRPSAVPRP then? -0.193

For RRIRRRPPRLPRPRPRPMDNPRP then? 0.158

For RRIRCRPPRLPRPRPRPMQVPRP then? -0.0376

* * *

Test system: Escherichia coli TOP10;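 also: peptides expressed intracellularly from a pBAD plasmid library in pooled LB shake-flask culture, induced with 0.3% L-arabinose, DNA abundance read by NGS, three biological replicates, DESeq2 with apeglm shrinkage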
Test: shrunken log2 fold change of peptide-encoding DNA abundance (4.5 h post-induction vs induction); higher = less antimicrobial activity (less host growth inhibition)
Settings: time post-induction: 4.5 h; library: site-saturation at positions 5, 18, 19, 20
// class assignment uses shrunken log2 fold change with these ranges: class A: < -0.05; class B: ≥ -0.05 and < 0.04; class C: ≥ 0.04

SEQUENCE STRING: RRIRLRPPRLPRPRPRPQPGPRP
ASSIGNED LABEL: class C

SEQUENCE STRING: RRIRDRPPRLPRPRPRPMWDPRP
ASSIGNED LABEL: class B

SEQUENCE STRING: RRIRMRPPRLPRPRPRPVTEPRP
ASSIGNED LABEL: class A

SEQUENCE STRING: RRIRGRPPRLPRPRPRPKWRPRP
ASSIGNED LABEL: class C

Which category fits this record: RRIRERPPRLPRPRPRPGSGPRP class C

For RRIRWRPPRLPRPRPRPNWYPRP then? class A

For RRIRVRPPRLPRPRPRPAFVPRP then? class B

For RRIRPRPPRLPRPRPRPKMWPRP then? class C

For RRIRYRPPRLPRPRPRPGWNPRP then? class A

For RRIRWRPPRLPRPRPRPYTWPRP then? class A

For RRIRVRPPRLPRPRPRPFFKPRP then? class C

For RRIRRRPPRLPRPRPRPCGSPRP then? class B

For RRIRKRPPRLPRPRPRPLDRPRP then? class B

For RRIRTRPPRLPRPRPRPVTSPRP then? class B
